Values were extracted from PubChem BioAssay AID1851.

- TESTED SYSTEM: Cytochrome P450 1A2 (Homo sapiens)
- PROCEDURE TEXT: Cytochrome panel assay with activity outcomes
- TEST CONTEXT: recombinant CYP, pro-luciferin dealkylation, luminescence, p450-cyp1a2; series mostly up to 57.1 µM
About 5,700 (36%) of roughly 16,000 compounds were called active. About 24% were inconclusive and are not listed. Calls follow the shape of the dose curve; as a rule, active = well fitted curve in the direction sought with a large enough effect; inconclusive = small, poorly fitted or top-dose-only effect, or effect the other way; inactive = no such curve, though single readings can be large or run the other way. Some of the results follow.
Answer with one of the outcomes given here: active, inactive

These solved cases illustrate the format of a correct answer.
1. CSc1nnc(-c2sc(-c3ccccc3)nc2C)n1C	active
2. CC[C@H](C)[C@@H]1O[C@]2(CC[C@@H]1C)C[C@H]1C[C@H](CC=C(C)[C@@H](O[C@H]3C[C@H](OC)[C@H](O[C@H]4C[C@H](OC)[C@H](O)[C@H](C)O4)[C@H](C)O3)[C@@H](C)C=CC=C3CO[C@@H]4[C@@H](O)C(C)=C[C@H](C(=O)O1)[C@@]34O)O2	inactive

Attention now shifts to the item below.
Query: What is the recorded call for this molecule in the test? COc1ccc(CCCO[C@@H](Cn2ccnc2)c2ccc(OC)cc2)cc1
Response: active

----------
- TESTED SYSTEM: Cytochrome P450 1A2 (Homo sapiens)
- PROCEDURE TEXT: Cytochrome panel assay with activity outcomes
- TEST CONTEXT: recombinant CYP, pro-luciferin dealkylation, luminescence, p450-cyp1a2; series mostly up to 57.1 µM
Screen size: about 16,000 compounds; about 5,700 (36%) were called active. Inconclusive results (about 24%) are left out. Calls follow the shape of the dose curve; as a rule, active = well fitted curve in the direction sought with a large enough effect; inconclusive = small, poorly fitted or top-dose-only effect, or effect the other way; inactive = no such curve, though single readings can be large or run the other way. Some of the results follow.
Form entry, call: pick from yes (1) = active, no (0) = inactive

Query: Hi team, can someone confirm the assay call for Cc1nc(SCC(=O)Nc2ccc(N3CCOCC3)cc2)nc(C)c1C ?
Response: no (0)

Query: Then O=c1[nH]ncc2c3ccccc3n(Cc3ccccc3)c12 ?
Response: yes (1)

Query: Would you mind doing Cc1nc(SCC(=O)Nc2c(C)n(C)n(-c3ccccc3)c2=O)nc(C)c1C as well?
Response: no (0)

Query: Let us now turn to Cc1cnc(CNc2ncnc3ccc(-c4cccc(C#N)c4)cc23)cn1
Response: yes (1)

Query: // repeat for CC(=O)N(/N=C1\Sc2ccccc2C1=O)c1ccccc1C and report
Response: yes (1)

Query: Check CC(=O)N(/N=C1\Sc2ccccc2C1=O)c1ccccc1 too.
Response: yes (1)

Query: Can you handle FC(F)(F)c1cc(CN2CCC3(CCNCC3)CC2)cc(C(F)(F)F)c1 next?
Response: no (0)

----------
- TESTED SYSTEM: Cytochrome P450 1A2 (Homo sapiens)
- PROCEDURE TEXT: Cytochrome panel assay with activity outcomes
- TEST CONTEXT: recombinant CYP, pro-luciferin dealkylation, luminescence, p450-cyp1a2; series mostly up to 57.1 µM
Hit rate of the full screen: of about 16,000 compounds, about 5,700 (36%) were called active. Roughly 24% stayed inconclusive and do not appear here. Calls come from the whole dose curve; as a rule, active = well fitted curve in the direction sought with a large enough effect; inconclusive = small, poorly fitted or top-dose-only effect, or effect the other way; inactive = no such curve, though single readings can be large or run the other way. The list shows a part of the results.
Write down the outcome that applies. Available outcomes: t (active), f (inactive)

Query: What was the test verdict on O=C(CCNc1cccc(Cl)c1)c1cccs1 ?
Response: t

Query: Now the same for Cn1c(/C=N/NC(=O)c2ccccc2Br)nc2ccccc21
Response: t

Query: Next record, please: O=C(c1ccccc1)[C@H](Nc1ccc2ccccc2c1)c1ccccc1
Response: t

Query: Same question, COc1cc(C2C(C(=O)c3ccc(C)o3)=C(O)C(=O)N2CCc2ccccc2)ccc1O (configuration not stated) this time
Response: f

Query: Ok, now CCN(CC)[C@@H](C)CN1c2ccccc2Sc2ccccc21
Response: t

Query: Request: COc1ccc2[nH]cc(CCNc3ncnc4ccc(-c5ccc6c(c5)OCO6)cc34)c2c1
Response: t

Query: Field entry: N#CC(=C1CCCC1)c1nc(-c2ccccc2)cs1
Response: t

Query: For CCn1c(SCC(=O)NC2CCCCC2)nc2c(c1=O)SC(C)C2 (configuration not stated) then?
Response: t

Query: Now the compound c1cc(CNCCCN2CCOCC2)ccn1
Response: f

Query: Subsequent entry: O=C(CNc1cccc(Cl)c1)c1ccc(Cl)cc1
Response: t

Query: Same for Cn1c(CNS(=O)(=O)c2ccc(Cl)cc2)n[nH]c1=S
Response: f

Query: Repeat with COCc1cc(=O)[nH]c2cc(NC(=O)C(F)(F)F)c(C)cc12
Response: t

Query: Again, but for N#CC(c1ccc(Cl)cc1)c1nc2ccccc2nc1C(F)(F)F (configuration not stated)
Response: t

Query: Entry CCC(=S)/C=C1\Sc2ccccc2N1CCCS(=O)(=O)O please
Response: f

Query: Moving on to the next compound: CC1(C)S[C@@H]2[C@H](NC(=O)C(N)c3ccccc3)C(=O)N2[C@H]1C(=O)O (some centres not stated)
Response: f

Query: # repeat for CC1(C)Cc2ccccc2C(NNC(=O)c2ccncc2)=N1
Response: t

Query: Next up: CC(C)n1nnnc1-c1cc(Cl)cc(Cl)c1
Response: t

Query: What do we get for Clc1ccccc1-c1nccc(NCCN2CCOCC2)n1 ?
Response: t

Query: Same again, this time with O=c1c2ccc([N+](=O)[O-])c3cccc(c32)c2nc3ccccc3n12
Response: t

Query: Field entry: COc1ccc2[nH]cc(CCNc3ncnc4ccc(-c5ccoc5)cc34)c2c1
Response: t

Query: Now the same for Clc1ccc(SCc2cc(-c3ccccc3)no2)cc1
Response: t

Query: Would you mind doing O=[N+]([O-])c1cccnc1NCCNc1ncc(C(F)(F)F)cc1Cl as well?
Response: t

Query: Continue with N#C/C(=N\O)c1nc(-c2ccccc2)cs1
Response: t
